Just for reference, the supplement of paper PMC10567573 is where these values come from.

B1: PPFIA4 (parent)
chain: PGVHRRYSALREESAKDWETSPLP

Variants of: B1
Run Description: protein stability index of a GFP-peptide fusion (GPS, HEK-293T) (PSI 1-6); higher = more stable;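 further: lentivirally expressed fusions sorted by FACS into six bins by GFP to DsRed ratio, PSI derived from sequencing read proportions per bin multiplied by bin number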
Cond: c terminus: a fixed tail appended
Observable: protein stability index
Give the figure by itself; no unit, no explanation.

1. S14D = 4.92
2. G2A = 3.85
3. R5D = 5.06
4. D17I = 3.33
5. Y7D = 4.38
6. L23N = 5
7. S8T = 2.88
8. S8R = 4.07

Requested field: protein stability index. Item: `A9G`
3.87
